B1: EEHEE_rd4_0469 (parent)
chain: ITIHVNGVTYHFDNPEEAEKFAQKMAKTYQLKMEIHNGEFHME

Variants of: B1
Procedure Text: folding stability dG (cDNA display proteolysis); higher = more stable
Condition Details: PBS, room temperature

Mutation Key	folding stability dG, kcal/mol
N6R	1.27
E34V	1.91
Q30V	0.688
K27A	1.32
E43M	1.69
T28F	1.67
Y10L	0.756
F40W	1.76
E19L	1.61
Y10Q	-0.14
F40N	0.711
H4A	0.76
H11F	1.17
D13K	1.1
T9H	1.11
I3Q	-0.059
T28P	0.094
I35F	1.21
E16H	1.14
